Attribution: patent US20050014811A1

Target: CDK2/CyclinE (Homo sapiens)
Test: CDK2/CyclinE Flashplate assay, 96-well format, biotinylated-Rb peptide substrate
pIC50: −log10 of the molar value.
RESULT_TYPE: pIC50

Here are 2 compounds together with their reported answers.
Problem: # assay system CDK2/CyclinE (Homo sapiens): give pIC50 of CC(CO)NC(=O)Nc1nc2cc(OS(=O)(=O)c3ccc(NC4CCCC4)cc3)ccc2[nH]1 (stereo not shown)
Solution: 7.00

Problem: # assay system CDK2/CyclinE (Homo sapiens): give pIC50 of `CNC(=O)Nc1nc2cc(OS(=O)(=O)c3ccc(NC4CCCC4)cc3)ccc2[nH]1`
Solution: 7.00

1 = CN(C)c1ccc(NC(=O)Nc2nc3cc(OS(=O)(=O)c4ccc(NC5CCCC5)cc4)ccc3[nH]2)cc1
2 = CN1CCN(CCCNC(=O)Nc2nc3cc(OS(=O)(=O)c4ccc(NC5CCCC5)cc4)ccc3[nH]2)CC1
Problem: // select label with min value of measured pIC50 from [ 1 , 2 ] API: response body contains the label of the selected item.
Solution: 1
(1: 6.40, 2: 7.40)

P = O=C(Nc1ccccc1)Nc1nc2cc(OS(=O)(=O)c3ccc(NC4CCCC4)cc3)ccc2[nH]1
Q = O=C(NCc1cccnc1)Nc1nc2cc(OS(=O)(=O)c3ccc(NCC4CCCO4)cc3)ccc2[nH]1 (stereo not shown)
Problem: Compare P and Q by numeric pIC50 and name the larger one. API: response body contains the label of the selected item.
Solution: Q

* * *

Target: CDK2/CyclinE (Homo sapiens)
Test: CDK2/CyclinE Flashplate assay, 96-well format, biotinylated-Rb peptide substrate
RESULT_TYPE: IC50 (µM)

Problem: # assay system CDK2/CyclinE (Homo sapiens): give IC50 of `CC(C)(C)OC(=O)NCC(=O)Nc1nc2cc(OS(=O)(=O)c3ccc(NC4CCCC4)cc3)ccc2[nH]1`
Solution: 0.4

Problem: # assay system CDK2/CyclinE (Homo sapiens): give IC50 of CNC(=O)Nc1nc2cc(OS(=O)(=O)c3ccc(NCC4CCCO4)cc3)ccc2[nH]1 (centres unmarked)
Solution: 0.005

A = COCCCNc1ccc(S(=O)(=O)Oc2ccc3[nH]c(NC(=O)OC)nc3c2)cc1
B = O=C(Nc1nc2cc(OS(=O)(=O)c3ccc(NC4CCCC4)cc3)ccc2[nH]1)C1CC1
Problem: Compare A and B by numeric IC50 and name the larger one. API: response body contains the label of the selected item.
Solution: A

* * *

Target: CDK4/CyclinD1 (Homo sapiens, UniProt P11802)
Sequence (P11802 whole entry, species assumed): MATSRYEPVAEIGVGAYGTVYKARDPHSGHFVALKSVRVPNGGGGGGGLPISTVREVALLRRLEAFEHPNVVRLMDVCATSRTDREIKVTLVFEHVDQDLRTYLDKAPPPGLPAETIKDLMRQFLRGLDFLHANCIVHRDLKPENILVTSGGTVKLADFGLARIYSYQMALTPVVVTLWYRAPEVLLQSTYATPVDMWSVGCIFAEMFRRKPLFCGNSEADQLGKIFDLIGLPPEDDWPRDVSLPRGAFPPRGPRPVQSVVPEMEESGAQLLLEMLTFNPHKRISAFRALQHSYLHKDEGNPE
Sequence (P24385 whole entry partner, species assumed): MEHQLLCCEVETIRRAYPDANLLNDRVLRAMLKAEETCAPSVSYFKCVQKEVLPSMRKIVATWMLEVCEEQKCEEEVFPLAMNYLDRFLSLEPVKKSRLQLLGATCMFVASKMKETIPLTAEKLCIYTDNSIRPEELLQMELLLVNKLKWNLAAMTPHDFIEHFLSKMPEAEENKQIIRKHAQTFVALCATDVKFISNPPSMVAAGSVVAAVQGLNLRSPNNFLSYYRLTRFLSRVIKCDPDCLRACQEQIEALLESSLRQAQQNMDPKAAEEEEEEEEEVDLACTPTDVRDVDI
Assay: CDK4/CyclinD1 Flashplate assay, 96-well format, biotinylated-Rb peptide substrate
Assay type: biochemical
RESULT_TYPE: inhibition at 10 µM (%)

Problem: # assay system CDK4/CyclinD1 (Homo sapiens, UniProt P11802): give inhibition at 10 µM of `COCCNC(=O)Nc1nc2cc(OS(=O)(=O)c3ccc(NCC4CCNCC4)cc3)ccc2[nH]1`
Solution: 46

Problem: # assay system CDK4/CyclinD1 (Homo sapiens, UniProt P11802): give inhibition at 10 µM of `O=C(Nc1cccc(F)c1)Nc1nc2cc(OS(=O)(=O)c3ccc(NC4CCCC4)cc3)ccc2[nH]1`
Solution: 84

Problem: # assay system CDK4/CyclinD1 (Homo sapiens, UniProt P11802): give inhibition at 10 µM of `O=C(NCCF)Nc1nc2ccc(OS(=O)(=O)c3ccc(NCCF)cc3)cc2[nH]1`
Solution: 100

Problem: # assay system CDK4/CyclinD1 (Homo sapiens, UniProt P11802): give inhibition at 10 µM of COCC(O)CNC(=O)Nc1nc2ccc(OS(=O)(=O)c3ccc(NCC(O)COC)cc3)cc2[nH]1 (stereo not drawn)
Solution: 103

Problem: # assay system CDK4/CyclinD1 (Homo sapiens, UniProt P11802): give inhibition at 10 µM of `COC(=O)Nc1nc2ccc(OS(=O)(=O)c3ccc(OCCN4CCOCC4)cc3)cc2[nH]1`
Solution: 50

Problem: # assay system CDK4/CyclinD1 (Homo sapiens, UniProt P11802): give inhibition at 10 µM of `O=C(Nc1cccc(Cl)c1)Nc1nc2cc(OS(=O)(=O)c3ccc(NC4CCCC4)cc3)ccc2[nH]1`
Solution: 84

a = O=C(Nc1nc2cc(OS(=O)(=O)c3ccc(NC4CCCC4)cc3)ccc2[nH]1)N1CCC1
b = COCCNC(=O)Nc1nc2cc(OS(=O)(=O)c3ccc(OCc4ccccc4)cc3)ccc2[nH]1
Problem: Compare a and b by numeric inhibition at 10 µM and name the larger one. API: response body contains the label of the selected item.
Solution: a
(a: 81%, b: 54%)

I = CCNC(=O)Nc1nc2cc(OS(=O)(=O)c3ccc(NC(C)CO)cc3)ccc2[nH]1 (stereo not drawn)
II = O=C(Nc1nc2cc(OS(=O)(=O)c3ccc(NC4CCCC4)cc3)ccc2[nH]1)NC1CCCCC1
Problem: // select label with min value of measured inhibition at 10 µM from [ I , II ] API: response body contains the label of the selected item.
Solution: II
(II: 70%, I: 100%)

1 = COC(=O)[C@@H]1CCCN1C(=O)Nc1nc2cc(OS(=O)(=O)c3ccc(NC4CCCC4)cc3)ccc2[nH]1
2 = O=C(NCCN1CCOCC1)Nc1nc2cc(OS(=O)(=O)c3ccc(NCC4CCNCC4)cc3)ccc2[nH]1
Problem: Compare 1 and 2 by numeric inhibition at 10 µM and name the larger one. API: response body contains the label of the selected item.
Solution: 1

* * *

Biological target: CDK4/CyclinD1 (Homo sapiens, UniProt P11802)
Experiment: CDK4/CyclinD1 Flashplate assay, 96-well format, biotinylated-Rb peptide substrate
RESULT_TYPE: IC50 (nM)

Here are 10 compounds together with their reported answers.
Problem: Report measured IC50; entry is O=C(Nc1nc2cc(OS(=O)(=O)c3ccc(NCCN4CCCC4)cc3)ccc2[nH]1)C1CC1 [Example 60-g]
Solution: 1500

Problem: Report measured IC50; entry is O=C(Nc1nc2cc(OS(=O)(=O)c3ccc(NCCN4CCNCC4)cc3)ccc2[nH]1)C1CC1 [Example 60-aa]
Solution: 3900

Problem: Report measured IC50; entry is COCCNC(=O)Nc1nc2cc(OS(=O)(=O)c3ccc(NC4CCCC4)cc3)ccc2[nH]1 [Example 48]
Solution: 300

Problem: Report measured IC50; entry is CC(=O)NCCNc1ccc(S(=O)(=O)Oc2ccc3[nH]c(NC(=O)C4CC4)nc3c2)cc1 [Example 60-ac]
Solution: 800

Problem: Report measured IC50; entry is O=C(Nc1nc2cc(OS(=O)(=O)c3ccc(NC4CCCC4)cc3)ccc2[nH]1)NC1CCC1 [Example 51]
Solution: 800

Problem: Report measured IC50; entry is CN(C)CC(=O)Nc1nc2cc(OS(=O)(=O)c3ccc(NC4CCCC4)cc3)ccc2[nH]1 [Example 29]
Solution: 1700

Problem: Report measured IC50; entry is CCN(CC)CCNc1ccc(S(=O)(=O)Oc2ccc3[nH]c(NC(=O)C4CC4)nc3c2)cc1 [Example 60-q]
Solution: 1800

Problem: Report measured IC50; entry is NCCNCCNc1ccc(S(=O)(=O)Oc2ccc3[nH]c(NC(=O)C4CC4)nc3c2)cc1 [Example 60-ad]
Solution: 1300

Problem: Report measured IC50; entry is CC(CO)Nc1ccc(S(=O)(=O)Oc2ccc3[nH]c(NC(=O)C4CC4)nc3c2)cc1 (stereo not drawn) [Example 60-i]
Solution: 300

Problem: Report measured IC50; entry is CCNc1ccc(S(=O)(=O)Oc2ccc3[nH]c(NC(=O)OC)nc3c2)cc1 [Example 6]
Solution: 840

P = O=C(O)[C@@H]1CCCN1C(=O)Nc1nc2cc(OS(=O)(=O)c3ccc(NC4CCCC4)cc3)ccc2[nH]1 [Example 58-q]
Q = O=C(NCc1ccccn1)Nc1nc2cc(OS(=O)(=O)c3ccc(NCC4CCCO4)cc3)ccc2[nH]1 (stereo not drawn) [Example 59-k]
R = CCNCCNc1ccc(S(=O)(=O)Oc2ccc3[nH]c(NC(=O)C4CC4)nc3c2)cc1 [Example 60-s]
Problem: Sort entries by IC50 from minimum to maximum value. Field: ranking. Enter the labels in the order requested.
Solution: Q, P, R

a = O=C(NCCCN1CCCC1)Nc1nc2cc(OS(=O)(=O)c3ccc(NCC4CCCO4)cc3)ccc2[nH]1 (stereo not drawn) [Example 59-h]
b = NC(=O)C1CCCCC1Nc1ccc(S(=O)(=O)Oc2ccc3[nH]c(NC(=O)C4CC4)nc3c2)cc1 (stereo not drawn) [Example 60-ab]
c = COC(=O)Nc1nc2cc(OS(=O)(=O)c3cccs3)ccc2[nH]1 [Example 62-b]
d = CNC(=O)Nc1nc2cc(OS(=O)(=O)c3ccc(-n4ccnc4)cc3)ccc2[nH]1 [Example 30]
Problem: Sort entries by IC50 from minimum to maximum value. Field: ranking. Enter the labels in the order requested.
Solution: c, a, d, b
